Test system: HCV replicon 2B
testDetails: microbe, parasite or virus in culture
Assay type: cell-based, Hepatitis C virus (HCV)
condition: read-out: 2B IC50; HCV replicon 2B; Replicon Assay A
# label = Criterion met if IC50 < 30 pM else Criterion not met

Completed entries (count: 4):
molecule | classification
CCc1ccc(C2Oc3cc(-c4cnc([C@@H]5CCCN5C(=O)[C@@H](NC(=O)OC)C(C)C)[nH]4)cc(C)c3-c3cc4cc(-c5cnc([C@@H]6CCCN6C(=O)C(NC(=O)OC)C6C[C@@H](C)O[C@@H](C)C6)[nH]5)ccc4n32)s1 (single isomer, unassigned) [Compound 544] | Criterion not met
COC(=O)N[C@H](C(=O)N1CCC[C@H]1c1ncc(-c2ccc3c(c2)OC(c2cc4ccccc4s2)n2c-3cc3cc(-c4cnc([C@@H]5C[C@@H](F)CN5C(=O)[C@@H](NC(=O)OC)C5CCOCC5)[nH]4)ccc32)[nH]1)C1CCOCC1 (single isomer, unassigned) [Compound 813] | Criterion met
COCc1ccc(C2Oc3cc(-c4cnc([C@@H]5CCCN5C(=O)[C@@H](NC(=O)OC)C(C)C)[nH]4)cc(F)c3-c3cc4cc(-c5c[nH]c([C@@H]6CCCN6C(=O)[C@@H](NC(=O)OC)C(C)C)n5)ccc4n32)s1 (single isomer, unassigned) [Compound 513] | Criterion not met
COC(=O)NC(C(=O)N1[C@@H]2C[C@@H]2C[C@H]1c1ncc(-c2ccc3c(c2)cc2n3C(c3ccc(CC4CC4)s3)Oc3cc(-c4cnc([C@@H]5CCCN5C(=O)[C@@H](NC(=O)OC)C(C)C)[nH]4)cc(F)c3-2)[nH]1)C1CCOC(C)(C)C1 (single isomer, unassigned) [Compound 419] | Criterion met

INPUT: Confirm or reject: IC50 of CCc1ccc(C2Oc3cc(-c4cnc([C@@H]5CCCN5C(=O)[C@@H](NC(=O)OC)C(C)C)[nH]4)ccc3-c3c(F)c4cc(-c5cnc([C@@H]6CCCN6C(=O)[C@@H](NC(=O)OC)C(C)C)[nH]5)ccc4n32)s1 (single isomer, unassigned) [Compound 603] lies strictly below 30 pM
OUTPUT: Criterion not met

INPUT: Item COC(=O)NC(C(=O)N1[C@@H]2C[C@@H]2C[C@H]1c1ncc(-c2ccc3c(c2)cc2n3C(c3ccc(CC4CC4)s3)Oc3cc(-c4cnc([C@@H]5CCCN5C(=O)[C@@H](NC(=O)OC)C(C)C)[nH]4)cc(F)c3-2)[nH]1)C1CCOC(C)(C)C1 (single isomer, unassigned) [Compound 417] : IC50 beneath 30 pM, strictly?
OUTPUT: Criterion met

INPUT: Bench note: check whether COC(=O)N[C@H](C(=O)N1CCC[C@H]1c1ncc(-c2cc(F)c3c(c2)OC(c2cc(C)c(C)s2)n2c-3cc3cc(-c4cnc([C@@H]5C[C@@H](F)CN5C(=O)[C@@H](NC(=O)OC)C(C)C)[nH]4)ccc32)[nH]1)C(C)C (single isomer, unassigned) [Compound 515] shows IC50 below 30 pM
OUTPUT: Criterion not met
